Cited source: patent US20250346582A1

- TESTED_TARGET: Syk-cSH2 (Homo sapiens, UniProt P43405)
- Construct: polyhistidine (N); made in house; host or cells: Escherichia coli BL21 (DE3) pLysS
- ASSAY_METHOD_TEXT: Fluorescence quenching vesicle binding assay, Syk-cSH2
ASSAY_ENDPOINT: IC50 (µM)
One number for each entry, in µM.

CCOP(=O)(OCC)C(=[N+]=[N-])C(Nc1ccccn1)c1ccc(C)cc1 (centres unmarked) :: 7

# input for lookup
**Query** Please indicate IC50 recorded for CCOP(=O)(/C=C(\Nc1ccccn1)c1ccc(C)cc1)OCC
**Result** 12

---

- TESTED_TARGET: Syk-cSH2 (Homo sapiens, UniProt P43405)
- Construct: polyhistidine (N); made in house; host or cells: Escherichia coli BL21 (DE3) pLysS
- ASSAY_METHOD_TEXT: Fluorescence quenching vesicle binding assay, Syk-cSH2
- REPORTED_CONDITIONS: Table 3; efficacy determined by the vesicle binding assay
ASSAY_ENDPOINT: Imax (%)

# annotated cases, reported Imax (%) shown
[N-]=[N+]=C(C(=O)OC1CCCCC1)C(Nc1ncccn1)c1ccc(F)cc1 (stereo not shown) :: Imax (%) = 10
Cc1ccc(C(Nc2ncccn2)C(=[N+]=[N-])C(=O)ON2CCOCC2)cc1 (stereo not shown) :: Imax (%) = 20
CCOC(=O)C(=[N+]=[N-])C(Nc1ncccn1)c1ccc(O)cc1 (stereo not shown) :: Imax (%) = 20
CC(C)(C)OC(=O)C(=[N+]=[N-])C(Nc1ccccn1)c1ccc(Br)cc1 (stereo not shown) :: Imax (%) = 10
[N-]=[N+]=C(C(=O)OC1CCCCC1)C(Nc1ncccn1)c1ccc(O)cc1 (stereo not shown) :: Imax (%) = 12

Hi there! I need Imax (%) for each item below, if you can.
1. [N-]=[N+]=C(C(=O)OC1CCCC1)C(Nc1ncccn1)c1ccc(C(F)(F)F)cc1 (stereo not shown)
2. CCOC(=O)C(=[N+]=[N-])C(Nc1ccccn1)c1cccnc1 (stereo not shown)
3. CCOC(=O)C(=[N+]=[N-])C(Nc1ccccn1)c1ccc(O)cc1 (stereo not shown)
4. COc1cc(OC)cc(C(Nc2ncccn2)C(=[N+]=[N-])C(=O)OC2CCCCC2)c1 (stereo not shown)
5. CCOC(=O)C(=[N+]=[N-])C(Nc1ccccn1)c1ccccc1 (stereo not shown)
6. [N-]=[N+]=C(C(=O)OC1CCCCC1)C(Nc1cnccn1)c1cccnc1 (stereo not shown)

**Result**
1: Imax (%) = 20; 2: Imax (%) = 18; 3: Imax (%) ≤ 10; 4: Imax (%) = 12; 5: Imax (%) ≤ 10; 6: Imax (%) = 20

Hi there! I need Imax (%) for each item below, if you can.
1. COc1cc(C(Nc2ncccn2)C(=[N+]=[N-])C(=O)OC(C)(C)C)cc(OC)c1OC (stereo not shown)
2. Cc1ccc(C(Nc2ncccn2)C(=[N+]=[N-])C(=O)OC2CCCC2)cc1 (stereo not shown)
3. Cc1ccc(C(CC(=O)OC2CCCCC2)Nc2ncccn2)cc1 (stereo not shown)
4. [N-]=[N+]=C(C(=O)OC1CCCCC1)C(Nc1ncccn1)c1ccc(Br)cc1 (stereo not shown)

**Result**
Imax (%) ≤ 10
Imax (%) = 18
Imax (%) ≤ 10
Imax (%) ≤ 10

---

- TESTED_TARGET: Syk-cSH2 (Homo sapiens, UniProt P43405)
- Construct: polyhistidine (N); made in house; host or cells: Escherichia coli BL21 (DE3) pLysS
- ASSAY_METHOD_TEXT: Fluorescence quenching vesicle binding assay, Syk-cSH2
- REPORTED_CONDITIONS: Table 3; efficacy determined by the vesicle binding assay; read-out: IC50
- Method: The membrane-binding assay is based on fluorescence quenching of EGFP fused to a SH2 domain by a dark quencher containing lipid, dabsyl-PE, incorporated in lipid vesicles. The plate reader assay was performed using the Synergy™ Neo spectrofluorometer at 25° C. […] Z′ factor for the assay system was determined as described^74. Imax and IC50 values of inhibitors were determined using the equation, I=Imax/(1+IC50/[I]) where I and [I] indicate % inhibition and inhibitor concentration, respectively. […]
The threshold is 4 µM. Values of IC50 beneath it are tagged 1.0; values meeting or exceeding it are tagged 0.0.

Example cases with answers are listed next.
[N-]=[N+]=C(C(=O)OC1CCCCC1)C(Nc1ncccn1)c1ccccc1 (centres unmarked) [WC-46] :: 0.0
CCOC(=O)C(=[N+]=[N-])C(Nc1ncccn1)c1ccc(O)cc1 (centres unmarked) [WC-115] :: 1.0

**Query** Threshold test, IC50 < 4 µM: [N-]=[N+]=C(C(=O)OC1CCCCC1)C(Nc1ncccn1)c1cccs1 (centres unmarked) [WC-37]
**Result** 1.0

**Query** Threshold test, IC50 < 4 µM: COc1cc(OC)cc(C(Nc2ncccn2)C(=[N+]=[N-])C(=O)OC2CCCCC2)c1 (centres unmarked) [WC-45]
**Result** 1.0

---

- TESTED_TARGET: Syk-cSH2 (Homo sapiens, UniProt P43405)
- Construct: polyhistidine (N); made in house; host or cells: Escherichia coli BL21 (DE3) pLysS
- ASSAY_METHOD_TEXT: Fluorescence quenching vesicle binding assay, Syk-cSH2
- REPORTED_CONDITIONS: Table 3; efficacy determined by the vesicle binding assay; read-out: IC50
ASSAY_ENDPOINT: IC50 (µM)
Numbers only, in µM.

Cc1ccc(C(Nc2cnccn2)C(=[N+]=[N-])C(=O)OC2CCCCC2)cc1 (stereo not drawn) :: 8
[N-]=[N+]=C(C(=O)OC1CCCCC1)C(Nc1ncccn1)c1ccc[nH]1 (racemic) :: 0.12
[N-]=[N+]=C(C(=O)OC1CCCCC1)C(C=Cc1ccccc1)Nc1ncccn1 (stereo not drawn) :: 5
Cc1ccc(C(CC(=O)OC2CCCCC2)Nc2ncccn2)cc1 (stereo not drawn) :: 10
CCOC(=O)C(=[N+]=[N-])C(Nc1ccccn1)c1ccccc1 (stereo not drawn) :: 5
CC(C)(C)OC(=O)C(=[N+]=[N-])C(Nc1ccccn1)c1ccc(Br)cc1 (stereo not drawn) :: 4.5
[N-]=[N+]=C(C(=O)OC1CCCCC1)C(Nc1ccccn1)c1ccc(O)c(Br)c1 (stereo not drawn) :: 3.5
CCOC(=O)C(=[N+]=[N-])C(Nc1ccccn1)c1ccc(O)cc1 (stereo not drawn) :: 7

# input for lookup
**Query** Please indicate IC50 recorded for [N-]=[N+]=C(C(=O)OC1CCCCC1)C(Nc1ncccn1)c1ccc(O)cc1 (stereo not drawn)
**Result** 4
